The reported measurements were obtained from patent US6989389B2.

Counter-ions that a name gives are not always drawn.
measured.endpoint: melting point

Example cases with answers are listed next.
// returns reported melting point for input CCCCc1nc2c(N)nc3ccccc3c2n1CCOc1ccccc1 [Example 132]
168.3 to 169.5 °C

// returns reported melting point for input Nc1nc2ccccc2c2c1ncn2CCOC/C=C/c1ccccc1 [Example 115]
183.7 to 184.3 °C

// returns reported melting point for input Nc1nc2ccccc2c2c1ncn2CCOCCCc1cccc(C(=O)O)c1 (as salt: trifluoroacetate) [Example 12, bis(trifluoroacetate)]
138 to 140 °C

// returns reported melting point for input Nc1nc2ccccc2c2c1ncn2CCOCC#Cc1ccccc1C(F)(F)F [Example 10]
154 to 155 °C

// returns reported melting point for input CN(C)c1ccc(CCCOCCn2cnc3c(N)nc4ccccc4c32)cc1 (as salt: trifluoroacetate) [Example 114]
137 to 140 °C

Others:
// returns reported melting point for input CCOCc1nc2c(N)nc3ccccc3c2n1CCOCCCc1ccccc1 (as salt: hydrochloride) [Example 16]
128 to 134 °C

// returns reported melting point for input Nc1nc2ccccc2c2c1nc(C1CCCC1)n2CCOc1ccccc1 [Example 135]
216 to 217.9 °C

// returns reported melting point for input Nc1nc2ccccc2c2c1nc(-c1ccccc1)n2CCOc1ccccc1 [Example 140]
182.5 to 184.6 °C

// returns reported melting point for input COCCc1nc2c(N)nc3ccccc3c2n1CCOCCCc1ccccc1 [Example 121]
103.8 to 104.5 °C

// returns reported melting point for input Nc1nc2ccccc2c2c1ncn2COCc1ccccc1 [Example 113]
168 to 172 °C

// returns reported melting point for input Cl.Nc1nc2ccccc2c2c1ncn2CCOCC#Cc1ccccc1 [Example 4]
231 to 236 °C

// returns reported melting point for input Cc1nc2c(N)nc3ccccc3c2n1CCCOCC#Cc1ccccc1 [Example 147]
160 to 161.6 °C

// returns reported melting point for input CCCCCCCCc1nc2c(N)nc3ccccc3c2n1CCOCCCc1ccccc1 [Example 117]
103.8 to 104.5 °C

// returns reported melting point for input CCCCc1nc2c(N)nc3ccccc3c2n1CCOCC#Cc1ccccc1 [Example 123]
133 to 140 °C

---

Listed compounds paired with reported melting point
Structures can show the parent of a compound that is named as a salt.

Example cases with answers are listed next.
// returns reported melting point for input CC[C@H](COCC#Cc1ccccc1)n1cnc2c(N)nc3ccccc3c21 [Example 108]
63 to 67 °C

// returns reported melting point for input COCCc1nc2c(N)nc3ccccc3c2n1CCOc1ccccc1 [Example 129]
171 to 174 °C

// returns reported melting point for input Nc1nc2ccccc2c2c1ncn2CCOCCCc1ccc(-n2cccc2)cc1 (as salt: trifluoroacetate) [Example 11]
179 to 181 °C

// returns reported melting point for input CCOCc1nc2c(N)nc3ccccc3c2n1CCOCC#Cc1ccccc1 [Example 122]
110.8 to 111.7 °C

// returns reported melting point for input Cc1ccc(C#CCOCCn2cnc3c(N)nc4ccccc4c32)cc1C [Example 23]
214 to 216 °C

// returns reported melting point for input CCCCCCCCc1nc2c(N)nc3ccccc3c2n1CCOCc1ccccc1 [Example 128]
110 to 111 °C

// returns reported melting point for input Nc1nc2ccccc2c2c1nc(CC1CC1)n2CCOc1ccccc1 [Example 137]
191.7 to 192.6 °C

// returns reported melting point for input C#CCOCCn1cnc2c(N)nc3ccccc3c21 [Example 1]
225 to 227 °C

// switching to the query compound
// returns reported melting point for input CC(C)c1nc2c(N)nc3ccccc3c2n1CCOc1ccccc1 [Example 131]
229 to 231 °C
